Field: Reactivity (%). Provide a value for each of the binders that follow.
Target: #371: VL-L2-VH CAR-T
Assay: flow cytometry on CAR-T cells; PE-labeled secondary antibody; PE-positive cells / total cells
Please give a number only; it is taken to be in %.

Sure, the documented Reactivity (%) for 3E7-C1 (antibody, V domains shown) VH: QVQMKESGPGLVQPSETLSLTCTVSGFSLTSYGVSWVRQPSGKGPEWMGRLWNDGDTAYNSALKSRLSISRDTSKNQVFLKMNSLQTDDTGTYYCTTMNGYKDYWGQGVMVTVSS VL: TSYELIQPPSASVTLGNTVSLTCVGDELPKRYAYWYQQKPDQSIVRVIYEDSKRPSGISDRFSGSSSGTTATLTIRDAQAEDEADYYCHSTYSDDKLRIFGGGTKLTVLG is 0

The reported Reactivity (%) of the binder 4B9-B11 (antibody, V domains shown) VH: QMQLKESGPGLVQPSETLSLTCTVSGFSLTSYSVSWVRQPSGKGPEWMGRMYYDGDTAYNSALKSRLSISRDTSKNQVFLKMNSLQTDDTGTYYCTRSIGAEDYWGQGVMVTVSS VL: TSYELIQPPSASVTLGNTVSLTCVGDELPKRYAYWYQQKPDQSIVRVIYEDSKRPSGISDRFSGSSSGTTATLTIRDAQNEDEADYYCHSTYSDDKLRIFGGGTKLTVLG was 0.1

Reactivity (%) reading for 3A4-A10-7 (antibody, V domains shown) VH: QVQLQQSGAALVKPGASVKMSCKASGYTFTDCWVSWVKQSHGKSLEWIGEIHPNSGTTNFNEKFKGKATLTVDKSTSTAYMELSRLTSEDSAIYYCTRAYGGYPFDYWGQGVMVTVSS VL: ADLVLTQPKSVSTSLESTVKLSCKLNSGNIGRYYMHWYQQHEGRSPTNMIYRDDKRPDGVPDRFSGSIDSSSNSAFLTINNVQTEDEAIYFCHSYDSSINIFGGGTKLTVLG : 0.2

Value of Reactivity (%) reported for the binder 2D12-B12 (antibody, V domains shown) VH: EVKLVESGGGLVQPGRSLKLSCAASGFNFNDYWMGWVRQAPGKGLEWIGEIKKDSSIINYIPSLKDKFTISRDNAQNTLYLQMSKLGSEDTAIYYCARGVEYYGYHYWGQGTLVTVSS VL: DIVMTQSPSSLAVSAGETVTINCKSSQSLLYSGNQKNYLAWYQQKPGQSPKLLIYWASTRHSGVPARFIGSGSGSDFTLTISSVQAEDLAIYCCQQYYDIPYTFGAGTKLELK is 0.2
